Where do these numbers come from? They come from a melting point compilation (Tetko et al.; mined from patent text by program, amines drawn as free bases though some values may be those of a salt).

Kindly state melting point for each of the entries shown.

Prompt line: Provide one value: measured melting point of COc1ccnc(CCc2nc3cc(-c4ccc(S(=O)(=O)N5CCN(c6ccccc6)CC5)cc4)cnc3[nH]2)c1
Response line: 218 to 220 °C

Prompt line: Provide one value: measured melting point of CCCCOc1cc(C(=O)O)cc(S(N)(=O)=O)c1-c1ccccc1
Response line: 129 to 131 °C

Prompt line: Provide one value: measured melting point of CCCN(c1ncccc1N)C1CCN(Cc2ccccc2)CC1
Response line: 73 to 74 °C

Prompt line: Provide one value: measured melting point of CCCCCN(CCC12CC3CC(CC(C3)C1)C2)C(=O)NCc1ccccn1
Response line: 87.5 to 92 °C

Prompt line: Provide one value: measured melting point of COC1(OC)CCC(O)(c2ccc(F)cc2)CC1
Response line: 94 to 99 °C

Prompt line: Provide one value: measured melting point of CC(C)(C)CNc1cc(Cl)nc(Cl)n1
Response line: 77 to 79 °C

Prompt line: Provide one value: measured melting point of COc1ccc(S(=O)(=O)N2C(=O)C(c3ccccc3OC)(N3c4ccccc4C[C@H]3C(=O)N(C)C)c3cc(Cl)ccc32)c(OC)c1 (stereo partly specified)
Response line: 167 °C

Prompt line: Provide one value: measured melting point of CC(=O)CS(=O)(=O)c1ccc(O)cc1
Response line: 118 to 121 °C

Prompt line: Provide one value: measured melting point of NS(=O)(=O)N1CCC(C2c3ncc(Br)cc3CCc3cc(Cl)cc(Cl)c32)CC1 (single isomer, unassigned; (+))
Response line: 133 to 134 °C

Prompt line: Provide one value: measured melting point of CN1CCN(CC2CCN(c3ccc(Nc4ncc5ccc(-c6cccc(S(=O)(=O)NC(C)(C)C)c6)n5n4)cc3)CC2)CC1
Response line: 233 to 235 °C

Prompt line: Provide one value: measured melting point of Cn1c(=O)c(=NO)nc(-c2ccccc2)c2cnccc21
Response line: 223 to 224 °C

Prompt line: Provide one value: measured melting point of CCCCCCCCCCCCCCOc1cc(OCCCCCCCCCCCCCC)cc(C(=O)N(CC(=O)O)CC(=O)O)c1
Response line: 88 to 90 °C

Prompt line: Provide one value: measured melting point of O=C(O)c1cnn(-c2ccc(F)cc2)c1
Response line: 244 to 247 °C

Prompt line: Provide one value: measured melting point of CN(C)c1nc2sc3c(NCc4cccnc4)ncnc3c2c2c1COC(C)(C)C2
Response line: 250 to 252 °C

Prompt line: Provide one value: measured melting point of Cc1cc(NS(=O)(=O)c2ccc(Br)cc2)cc(C)c1S(=O)(=O)C[N+](=O)[O-]
Response line: 164 to 166 °C

Prompt line: Provide one value: measured melting point of Cc1cc(-c2cc(C(F)(F)F)nc(-n3cnc(-c4cccc(S(N)(=O)=O)c4)c3)n2)ccc1C(F)(F)F
Response line: 180 °C

Prompt line: Provide one value: measured melting point of Cc1ccc(NC(=S)Nc2ncccc2OCc2c(F)cccc2Cl)cc1
Response line: 138 to 140 °C

Prompt line: Provide one value: measured melting point of Cc1cc(NS(=O)(=O)c2nc3nc(Cl)cc(Cl)n3n2)ccc1Br
Response line: 232 to 234 °C

Prompt line: Provide one value: measured melting point of O=C(Nc1ccccc1S(=O)(=O)N1CCCCC1)N[C@@H](Cc1ccc(Nc2nccc3cnccc23)cc1)C(=O)O
Response line: 207 °C

Prompt line: Provide one value: measured melting point of CON=C(C(=O)O)c1cccs1
Response line: 106 °C

Prompt line: Provide one value: measured melting point of CC(C)(C)c1cc(C(=O)CCl)ccc1Cl
Response line: 159 °C

Prompt line: Provide one value: measured melting point of OCC(CO)Oc1ccc(I)cc1
Response line: 90 °C

Prompt line: Provide one value: measured melting point of CC(C)(C)c1cc(SCCC(=O)N(C2CCCCC2)C2CCCCC2)cc(C(C)(C)C)c1O
Response line: 168 to 172 °C

Prompt line: Provide one value: measured melting point of CNC(=S)NS(=O)(=O)c1cc(CCNC(=O)c2cnc3ccccc3c2)ccc1OCCOCC(F)(F)F
Response line: 115 to 120 °C

Prompt line: Provide one value: measured melting point of CCOC(=O)c1cc(C=O)cn1C
Response line: 75 to 76 °C

Prompt line: Provide one value: measured melting point of COc1ccc2c(c1)c(S(=O)(=O)c1ccccc1)cn2CCNCc1ccccc1
Response line: 98 to 99 °C

###

Kindly state melting point for each of the entries shown.

Prompt line: Provide one value: measured melting point of O=c1[nH]c(CCCOc2cccc(CN3CCCCC3)c2)ncc1Cc1ccnc(O)c1
Response line: 167 to 169 °C

Prompt line: Provide one value: measured melting point of N#Cc1cnccc1CCCOc1cccnc1Oc1cccc(Cl)c1
Response line: 146 to 150 °C

Prompt line: Provide one value: measured melting point of CCCCCCC(C)(C)c1cc(OCc2ccccc2)c(C2=C(CC#N)CCC(C)C2)c(OCc2ccccc2)c1 (stereo not drawn)
Response line: 85 to 86 °C

Prompt line: Provide one value: measured melting point of Nc1ccc(CCc2ccc(Cl)c(Cl)c2)cc1
Response line: 68 to 70 °C

Prompt line: Provide one value: measured melting point of Cc1cc(C)n2nc(S(=O)(=O)Nc3c(Cl)ccc(C)c3Cl)nc2n1
Response line: 286 to 288 °C

Prompt line: Provide one value: measured melting point of Nc1cccc(NC(=O)NCCCOc2cccc(CN3CCCCC3)c2)c1
Response line: 116 to 118 °C

Prompt line: Provide one value: measured melting point of CCCCCc1c(/C=C/C(=O)Oc2ccc([N+](=O)[O-])cc2)oc2cc(OC)ccc12
Response line: 120 to 122 °C

Prompt line: Provide one value: measured melting point of CC(=O)N1c2c(ccn3cc(C)nc23)C(=O)C(OC(=O)C(C)(C)C)C1c1ccccc1 (stereo not drawn)
Response line: 168 to 169 °C

Prompt line: Provide one value: measured melting point of Cc1cc(C2=NN(C3=NNC(=O)CS3)[C@H](C)Cc3cc4c(cc32)OCO4)ccc1[N+](=O)[O-]
Response line: 207 to 211 °C

Prompt line: Provide one value: measured melting point of COc1cccc2c1CCCC2=NNc1nc(-c2ccc(F)cc2)cs1
Response line: 198 °C

Prompt line: Provide one value: measured melting point of COC(C)COC(=O)Nc1ccc(C2=NNC(=O)CC2C)cc1 (stereo not drawn)
Response line: 173 to 175 °C

Prompt line: Provide one value: measured melting point of NC(CC1CCCCC1)C(O)C(O)C1CC1 (stereo not drawn)
Response line: 141 to 142 °C

Prompt line: Provide one value: measured melting point of COC(=O)C(CC(=O)c1cc(Cl)c(C)c(Cl)c1)OC (stereo not drawn)
Response line: 75 to 78 °C

Prompt line: Provide one value: measured melting point of CC(C)(C)C(=O)Oc1cc([N+](=O)[O-])cc([N+](=O)[O-])c1O
Response line: 132 to 135 °C

Prompt line: Provide one value: measured melting point of CC#CCOc1ccc(S(=O)(=O)C2(C(=O)O)CCOCC2)cc1
Response line: 197 °C

Prompt line: Provide one value: measured melting point of CCC(CC)Oc1cc(C)nc2c1NC(=O)CN2c1c(C)cc(C)cc1C
Response line: 179 to 181 °C

Prompt line: Provide one value: measured melting point of CCCc1cc(-c2nc(-c3ccc(C)cc3)cs2)ccn1
Response line: 190 to 193 °C

Prompt line: Provide one value: measured melting point of CCCCCCCn1c(C)c(CC(=O)O)c2cc(OCc3ccc4ccccc4n3)ccc21
Response line: 127 to 131 °C

Prompt line: Provide one value: measured melting point of Cc1ccc2c(O)ccnc2c1
Response line: 233 to 235 °C

Prompt line: Provide one value: measured melting point of CN(c1cccc2cc(C(=O)O)[nH]c12)S(=O)(=O)c1nccn1C
Response line: 241 to 242 °C

Prompt line: Provide one value: measured melting point of CC(=O)c1ccc(-n2c(-c3cc(-c4ccc(S(C)(=O)=O)cc4)c(N4CCOCC4)s3)nc3ccccc3c2=O)cc1
Response line: 239 to 242 °C

Prompt line: Provide one value: measured melting point of CCOc1ccc(O)cc1C=O
Response line: 108 to 109 °C

Prompt line: Provide one value: measured melting point of CCOC(=O)CC(=O)Nc1ccc(NC(=O)CC(=O)OCC)c([N+](=O)[O-])c1
Response line: 96 to 97 °C

###

Kindly state melting point for each of the entries shown.

Prompt line: Provide one value: measured melting point of CCOc1nc2ccccc2nc1NC(=O)N1CCN(c2cc(Cl)cc(Cl)c2)CC1
Response line: 157 to 159 °C

Prompt line: Provide one value: measured melting point of O=C(O)c1ccc(Cc2cc3cc(Cl)ccc3n2S(=O)(=O)c2ccc3c(c2)OCCO3)s1
Response line: 196 °C

Prompt line: Provide one value: measured melting point of Cc1c(CCc2ccc3nc(N)oc3c2)nc2cc(CCl)ccn12
Response line: > 300 °C

Prompt line: Provide one value: measured melting point of COc1ccc(Cc2nccc3c4c(ccc23)OCO4)cc1OC
Response line: 111 °C

Prompt line: Provide one value: measured melting point of COc1ccc(-c2nc(C)cc(O)n2)cc1
Response line: 198 to 199 °C

Prompt line: Provide one value: measured melting point of COc1cc2c(cc1OC)[C@H]([C@H](O)c1ccccc1)OC2=O
Response line: 113 to 115 °C

Prompt line: Provide one value: measured melting point of O=S(=O)(NC1CCCCC1)c1ccc2c(c1)S(=O)(=O)NC1CCCN21 (configuration not stated)
Response line: 195 to 197 °C

Prompt line: Provide one value: measured melting point of CC1(C)OCCC2C(C3(O)CCSCC3)C(=O)N21 (configuration not stated)
Response line: 133 to 134 °C

Prompt line: Provide one value: measured melting point of O=c1[nH]c2ccc(F)cc2n2ccnc12
Response line: > 300 °C

Prompt line: Provide one value: measured melting point of CCCCCCCCCCOC(=O)N[C@H]1CCCNC(=O)C1
Response line: 40 to 41 °C

Prompt line: Provide one value: measured melting point of Nc1nc(Cl)c2ncn(COCCOC(=O)c3ccccc3)c2n1
Response line: 130 to 134 °C

Prompt line: Provide one value: measured melting point of Cc1cc(-c2cc(F)c(F)cc2-c2ccc(S(N)(=O)=O)cc2)ccc1F
Response line: 152 °C

Prompt line: Provide one value: measured melting point of CCC1(C(=O)C=Cc2ccc(C(=O)O)cc2)CC1
Response line: 184 °C

Prompt line: Provide one value: measured melting point of CN1c2c(Cl)cc(CC(=O)O)cc2CCC1c1ccccc1 (configuration not stated)
Response line: 111 to 112 °C

Prompt line: Provide one value: measured melting point of COC(=O)CCCc1cc2nc(Cl)ccc2n1S(=O)(=O)c1ccc(I)cc1
Response line: 117 to 118 °C

Prompt line: Provide one value: measured melting point of CCc1ccc(S(=O)(=O)c2ccc(C)nc2Nc2ccc(OC)cc2Cl)cc1
Response line: 110 to 112 °C

Prompt line: Provide one value: measured melting point of CCc1ccc(-c2ccccc2)cc1O
Response line: 62 to 65 °C

Prompt line: Provide one value: measured melting point of O=C(NCC1CCCCC1)NCC1CCCCC1
Response line: 150 to 152 °C

Prompt line: Provide one value: measured melting point of COc1ccc(C2CC(=O)N(C(=S)NCc3ccc(F)cc3)N2C)cc1OC1CCCC1 (configuration not stated)
Response line: 48 to 51 °C

Prompt line: Provide one value: measured melting point of Cc1cc(Oc2cc(Cl)ccc2[N+](=O)[O-])n[nH]1
Response line: 87 to 90 °C

Prompt line: Provide one value: measured melting point of CCCCCCNC(=O)C1=C(C(=O)Nc2cc(OC3CCC(C)C3)c(Cl)cc2F)CCCC1 (configuration not stated)
Response line: 127 to 129 °C

Prompt line: Provide one value: measured melting point of CCCSc1nc(-c2ccc(OC)cc2)c(-c2ccc(OC)cc2)s1
Response line: 58 to 60 °C

Prompt line: Provide one value: measured melting point of CC(C)(C)NC(=O)[C@@H]1C[C@@H]2CCCC[C@@H]2CN1C[C@@H](O)[C@H](Cc1ccccc1)NC(=O)[C@@H](Nc1nc(CO)cs1)C(C)(C)S(C)(=O)=O
Response line: 126 °C

Prompt line: Provide one value: measured melting point of CCCCCN(CCC12CC3CC(CC(C3)C1)C2)C(=O)NCCCc1ccccn1
Response line: 84.4 to 85.7 °C

Prompt line: Provide one value: measured melting point of COc1cccc(-c2cc(Cl)ncn2)c1
Response line: 112 to 115 °C

Prompt line: Provide one value: measured melting point of CCCCCc1nc2ccc(C(=O)O)cc2c(=O)[nH]1
Response line: 310 to 312 °C

Prompt line: Provide one value: measured melting point of CCCCC(O)c1c(C(C)C)nc(C(C)C)c(CO)c1-c1ccc(F)cc1 (configuration not stated)
Response line: 166 to 168 °C
